Target: Voltage-dependent L-type calcium channel subunit alpha-1C (Rattus norvegicus); also: assay procedure not described here
Sequence (P22002 whole entry): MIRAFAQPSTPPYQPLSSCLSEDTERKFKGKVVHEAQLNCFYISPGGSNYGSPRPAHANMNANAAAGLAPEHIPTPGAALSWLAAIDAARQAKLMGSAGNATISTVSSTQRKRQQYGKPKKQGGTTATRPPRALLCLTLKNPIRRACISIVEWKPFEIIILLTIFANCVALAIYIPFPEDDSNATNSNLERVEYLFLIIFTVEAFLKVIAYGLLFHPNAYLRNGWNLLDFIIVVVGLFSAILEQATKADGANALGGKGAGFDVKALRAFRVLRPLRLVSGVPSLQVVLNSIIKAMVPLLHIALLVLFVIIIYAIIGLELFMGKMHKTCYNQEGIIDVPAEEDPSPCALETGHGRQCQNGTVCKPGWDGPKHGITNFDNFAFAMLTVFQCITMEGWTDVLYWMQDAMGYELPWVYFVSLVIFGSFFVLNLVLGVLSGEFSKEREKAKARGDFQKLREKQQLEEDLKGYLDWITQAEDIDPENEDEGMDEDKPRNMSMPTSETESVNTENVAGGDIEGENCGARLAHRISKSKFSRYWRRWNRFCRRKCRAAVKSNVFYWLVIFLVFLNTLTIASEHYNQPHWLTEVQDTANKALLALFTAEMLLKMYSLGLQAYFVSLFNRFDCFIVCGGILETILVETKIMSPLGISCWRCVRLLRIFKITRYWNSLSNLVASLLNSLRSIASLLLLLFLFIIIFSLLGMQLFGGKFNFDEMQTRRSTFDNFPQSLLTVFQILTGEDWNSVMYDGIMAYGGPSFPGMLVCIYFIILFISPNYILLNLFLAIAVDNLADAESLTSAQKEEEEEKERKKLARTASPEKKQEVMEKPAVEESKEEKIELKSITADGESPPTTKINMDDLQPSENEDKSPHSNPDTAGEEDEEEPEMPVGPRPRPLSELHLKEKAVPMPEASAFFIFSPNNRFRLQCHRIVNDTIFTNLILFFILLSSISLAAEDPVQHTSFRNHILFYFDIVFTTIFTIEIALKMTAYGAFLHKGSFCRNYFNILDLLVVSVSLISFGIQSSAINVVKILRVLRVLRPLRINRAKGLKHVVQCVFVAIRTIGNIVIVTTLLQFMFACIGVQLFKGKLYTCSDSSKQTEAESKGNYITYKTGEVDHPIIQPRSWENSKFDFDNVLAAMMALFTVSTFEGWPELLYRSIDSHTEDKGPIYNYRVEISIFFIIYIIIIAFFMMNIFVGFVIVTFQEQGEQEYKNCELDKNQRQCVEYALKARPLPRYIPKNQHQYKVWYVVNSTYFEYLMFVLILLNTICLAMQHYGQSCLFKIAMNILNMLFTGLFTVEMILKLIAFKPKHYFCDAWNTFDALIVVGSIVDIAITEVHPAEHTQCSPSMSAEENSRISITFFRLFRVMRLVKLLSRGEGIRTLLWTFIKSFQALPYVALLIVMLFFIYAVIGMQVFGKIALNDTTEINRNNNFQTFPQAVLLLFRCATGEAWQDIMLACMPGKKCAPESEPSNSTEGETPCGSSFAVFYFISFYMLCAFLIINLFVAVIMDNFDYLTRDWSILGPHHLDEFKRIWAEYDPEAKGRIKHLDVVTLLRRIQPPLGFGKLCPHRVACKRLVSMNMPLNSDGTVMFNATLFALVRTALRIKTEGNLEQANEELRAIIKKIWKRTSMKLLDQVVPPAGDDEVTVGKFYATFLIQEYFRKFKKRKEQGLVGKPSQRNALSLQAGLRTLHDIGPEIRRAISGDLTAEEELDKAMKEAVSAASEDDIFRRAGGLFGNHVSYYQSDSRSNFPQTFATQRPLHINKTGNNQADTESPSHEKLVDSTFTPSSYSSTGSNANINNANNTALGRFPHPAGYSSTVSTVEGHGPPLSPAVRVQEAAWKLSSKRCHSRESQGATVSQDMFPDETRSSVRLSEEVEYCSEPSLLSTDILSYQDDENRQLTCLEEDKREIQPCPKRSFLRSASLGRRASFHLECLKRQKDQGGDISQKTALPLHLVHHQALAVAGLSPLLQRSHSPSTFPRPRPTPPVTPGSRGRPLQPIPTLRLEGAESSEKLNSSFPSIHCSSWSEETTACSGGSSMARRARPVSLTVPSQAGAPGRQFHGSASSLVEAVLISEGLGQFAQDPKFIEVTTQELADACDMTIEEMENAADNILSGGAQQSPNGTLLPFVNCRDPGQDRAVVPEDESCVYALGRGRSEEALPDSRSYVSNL
Type: functional

[
  {
    "compound": "CCOc1ccc(Cc2cc([C@@H]3O[C@H](CO)[C@@H](O)[C@H](O)[C@H]3O)ccc2Cl)cc1",
    "AC50": "> 10 µM"
  },
  {
    "compound": "CC(=O)O[C@H]1C[C@@H]2CC[C@@H]3[C@H](CC[C@@]4(C)[C@H]3C[C@H]([N+]3(C)CCCCC3)[C@@H]4OC(C)=O)[C@@]2(C)C[C@@H]1N1CCCCC1",
    "AC50": "> 30 µM"
  },
  {
    "compound": "CCOC(=O)[C@H](CCc1ccccc1)N[C@@H](C)C(=O)N1[C@H](C(=O)O)C[C@@H]2CCC[C@@H]21",
    "AC50": "> 10 µM"
  },
  {
    "compound": "CCCCCCOc1ccccc1C(N)=O [EXALAMIDE]",
    "AC50": "> 30 µM"
  },
  {
    "compound": "CC(C)(C)NCC(O)COc1cccc2c1CCC(=O)N2 (stereo unspecified)",
    "AC50": "> 10 µM"
  },
  {
    "compound": "NCC(CC(=O)O)c1ccc(Cl)cc1 (stereo unspecified)",
    "AC50": "> 10 µM"
  },
  {
    "compound": "CC[C@H]1OC(=O)[C@H](C)[C@@H](O[C@H]2C[C@@](C)(OC)[C@@H](O)[C@H](C)O2)[C@H](C)[C@@H](O[C@@H]2O[C@H](C)C[C@H](N(C)C)[C@H]2O)[C@](C)(O)C[C@@H](C)CN(C)[C@H](C)[C@@H](O)[C@]1(C)O",
    "AC50": "> 10 µM"
  },
  {
    "compound": "Nc1ccn([C@H]2CC[C@@H](CO)O2)c(=O)n1",
    "AC50": "> 10 µM"
  },
  {
    "compound": "C[C@H](N)[C@H](O)c1cccc(O)c1",
    "AC50": "> 10 µM"
  },
  {
    "compound": "CCC(C(=O)O)c1ccc(N2Cc3ccccc3C2=O)cc1 (stereo unspecified)",
    "AC50": "> 30 µM"
  },
  {
    "compound": "C=CCC1(C(C)CC)C(=O)NC(=O)NC1=O (stereo unspecified)",
    "AC50": "> 10 µM"
  },
  {
    "compound": "Cc1c(OCC(F)(F)F)ccnc1C[S+]([O-])c1nc2ccccc2[nH]1 (stereo unspecified)",
    "AC50": "> 10 µM"
  },
  {
    "compound": "Cc1cn([C@H]2C=C[C@@H](CO)O2)c(=O)[nH]c1=O",
    "AC50": "> 10 µM"
  },
  {
    "compound": "COc1cc2nc(N(C)CCCNC(=O)C3CCCO3)nc(N)c2cc1OC (stereo unspecified)",
    "AC50": "> 30 µM"
  },
  {
    "compound": "CC(=O)OCC(=O)[C@@]12N=C(C)O[C@@H]1C[C@H]1[C@@H]3CCC4=CC(=O)C=C[C@]4(C)[C@H]3[C@@H](O)C[C@@]12C",
    "AC50": "> 30 µM"
  },
  {
    "compound": "CC(C)Cn1cnc2c(N)nc3ccccc3c21",
    "AC50": "> 10 µM"
  },
  {
    "compound": "CCOC(=O)OC(C)OC1=C(C(=O)Nc2ccccn2)N(C)S(=O)(=O)c2ccccc21 (stereo unspecified)",
    "AC50": "> 30 µM"
  },
  {
    "compound": "CCCCCNC(=N)N/N=C/c1c[nH]c2ccc(OC)cc12",
    "AC50": "> 30 µM"
  },
  {
    "compound": "CC(C[N+](C)(C)C)OC(N)=O (stereo unspecified)",
    "AC50": "> 10 µM"
  },
  {
    "compound": "CN1C(=O)CCS(=O)(=O)C1c1ccc(Cl)cc1 (stereo unspecified)",
    "AC50": "> 10 µM"
  },
  {
    "compound": "C[C@](N)(Cc1ccc(O)c(O)c1)C(=O)O",
    "AC50": "> 10 µM"
  },
  {
    "compound": "CC(C)C(=O)c1c(C(C)C)nn2ccccc12",
    "AC50": "> 30 µM"
  },
  {
    "compound": "C#C[C@]1(O)CC[C@H]2[C@@H]3CCC4=Cc5oncc5C[C@]4(C)[C@H]3CC[C@@]21C",
    "AC50": "> 10 µM"
  },
  {
    "compound": "CC(Oc1c(Cl)cccc1Cl)C1=NCCN1 (stereo unspecified)",
    "AC50": "> 30 µM"
  },
  {
    "compound": "CCCCN1C[C@H](O)[C@@H](O)[C@H](O)[C@H]1CO",
    "AC50": "> 30 µM"
  },
  {
    "compound": "Cc1cccc(Nc2ccccc2C(=O)O)c1C",
    "AC50": "> 10 µM"
  },
  {
    "compound": "C=CCN1CCCC1CNC(=O)c1cc(S(N)(=O)=O)cc(OC)c1OC (stereo unspecified) [VERALIPRIDE]",
    "AC50": "> 30 µM"
  },
  {
    "compound": "CN1[C@@H]2CC[C@H]1C[C@@H](OC(c1ccccc1)c1ccccc1)C2",
    "AC50": "> 10 µM"
  },
  {
    "compound": "CNS(=O)(=O)Cc1ccc2[nH]cc(CCN(C)C)c2c1",
    "AC50": "> 10 µM"
  },
  {
    "compound": "CCCc1nc(C(C)(C)O)c(C(=O)OCc2oc(=O)oc2C)n1Cc1ccc(-c2ccccc2-c2nnn[nH]2)cc1",
    "AC50": "> 10 µM"
  },
  {
    "compound": "CC1(C)O[C@@H]2C[C@H]3[C@@H]4CCC5=CC(=O)C=C[C@]5(C)[C@H]4[C@@H](O)C[C@]3(C)[C@]2(C(=O)CO)O1 [DESONIDE]",
    "AC50": "> 10 µM"
  },
  {
    "compound": "CCCC(C)C1(CC)C(=O)NC(=O)NC1=O (stereo unspecified)",
    "AC50": "> 10 µM"
  },
  {
    "compound": "Fc1ccc(C(c2ccccc2)(c2ccccc2F)n2ccnc2)cc1 (stereo unspecified)",
    "AC50": "> 30 µM"
  },
  {
    "compound": "CCCSc1ccc2nc(NC(=O)OC)[nH]c2c1",
    "AC50": "> 10 µM"
  },
  {
    "compound": "C[C@@H]1O[C@@H](O[C@@H]2C=C3CC[C@@H]4[C@H](CC[C@]5(C)[C@@H](c6ccc(=O)oc6)CC[C@]45O)[C@@]3(C)CC2)[C@H](O)[C@H](O)[C@H]1O",
    "AC50": "> 30 µM"
  },
  {
    "compound": "COc1ccc(C(=O)Nc2ccccc2CCC2CCCCN2C)cc1 (stereo unspecified) [ENCAINIDE]",
    "AC50": "> 10 µM"
  }
]
